Test system: HL-60
Test: NCI tumour cell line growth inhibition, 48 h
Active and inactive are the calls of the source. Cut-off read from the data, not from the text of the source: active = GI50 up to about 1.1 µM and inactive = higher.
Reply using exactly one outcome from active, inactive

{"COMPOUND": "COC(=O)C1=C(C)NC2=C(C(=O)c3ccccc32)C1c1c[nH]nc1-c1ccccc1 (stereo unspecified)", "TARGET OR TEST SYSTEM": "HL-60", "GROUP": "inactive"}
{"COMPOUND": "O=C1/C(=C/c2ccc3c(c2)OCO3)CCC1CN1CCOCC1 (stereo unspecified)", "TARGET OR TEST SYSTEM": "HL-60", "GROUP": "inactive"}
{"COMPOUND": "CC(=O)NC1C(OCc2ccccc2)OC(CO)C(O)C1OCC(=O)NC(C)C(=O)NC(CCC(=O)NCCCCCC(=O)Nc1ccc2c(c1)CN1C(=O)c3ccccc3C1=N2)C(N)=O (stereo unspecified)", "TARGET OR TEST SYSTEM": "HL-60", "GROUP": "inactive"}

Look up the recorded call for C=CCN1C(=O)CS/C1=N\NC(=O)CSc1nc2ccccc2c(=O)n1CC in this test.
inactive

What about COc1ccc2c3c1O[C@H]1C[C@@H](O)C=C[C@@]31CCN(C)C2 [GALANTAMINE] ?
inactive

How about this compound: O=C1OC2C(O)COC2(O)C1(O)C(C[N+](=O)[O-])c1ccc(Cl)cc1 (stereo unspecified)
inactive

Same for SC1=NC2=C(CSC/C2=C\c2cccc(Br)c2)C(c2cccc(Br)c2)N1 (stereo unspecified)
inactive

Repeat with C=C1C(=O)O[C@H]2[C@H]1[C@H](OC(=O)/C(C)=C\C)C[C@]1(CO1)[C@@H]1[C@H](OC(C)=O)C=C(C)[C@]21O [EUPAROTIN ACETATE]
inactive

Follow-up entry: O=C(CCCN1CCC(Nc2ccccc2)(c2nnnn2C2CCCCC2)CC1)c1ccc(F)cc1
inactive

Would you mind doing Oc1cc(Br)cc2cc(Cl)cnc12 as well?
active

Please do the same for COC(=O)/C=C/c1ccc2nncnc2c1.COC(=O)/C=C\c1ccc2nncnc2c1 as well.
inactive

Please answer likewise for CC(=O)NNc1nc(C)c(C(/C=C/c2cccc([N+](=O)[O-])c2)=N/NC(=S)NN)s1
inactive

Query COC(=O)Nc1nc2cc(C(=O)c3ccc[nH]3)ccc2[nH]1 next
active

Now this one: O=C(C1OC1c1cccc([N+](=O)[O-])c1)C12CC3CC(CC(C3)C1)C2 (stereo unspecified)
inactive

Also CCSCCCCC(c1ccc(O)cc1)C(C)(CC)c1ccc(O)cc1 (stereo unspecified) , if possible.
inactive

Also check CC12OC(=O)C(C#N)C1(C)C1C(=O)CCCC12 (stereo unspecified)
inactive

Cool, now O=c1cc[nH]c(=O)[nH]1 [URACIL]
inactive

Request: CCOC(=O)c1c(-c2ccc(O)c(OC)c2)c(C#N)c(=S)n(C2OC(COC(C)=O)C(OC(C)=O)C(OC(C)=O)C2OC(C)=O)c1-c1ccccc1 (stereo unspecified)
inactive

What do you get for Cc1c2ccncc2c(C)c2c1[nH]c1ccc(Oc3ccccc3)cc12 ?
inactive

How about CCN(CC)CCn1c(=O)c2cccnc2n2c3c(=O)n(C)c(=O)n(C)c3nc12 ?
inactive

Repeat with COC(=O)c1c(-c2ccccc2)sc(-c2cccc3ccccc23)c1C(=O)OC
inactive

Similarly, Cc1nc2c(cc1C(=O)N/N=C/c1ccc([N+](=O)[O-])cc1)c(=O)n(C)c(=O)n2C ?
inactive

* * *

Test system: SK-MEL-2
Assay: NCI tumour cell line growth inhibition, 48 h
The source made the active and inactive calls. No stated cut-off is given here; in the data, active = GI50 up to about 1.1 µM and inactive = higher. Square brackets hold non-standard residues; d marks the D form. Peptide text beside a SMILES is read from it. * marks the point of attachment. ξ: configuration not given here. ξF = NC(Cc1ccccc1)C(=O)O; Cbz = O=C(OCc1ccccc1)*; Aib = CC(C)(N)C(=O)O
MEASUREMENT LABEL: GI50

These solved cases illustrate the format of a correct answer.
{"MOLECULE": "COc1cc2c(cc1OC)C1C=NC(C2)c2cc(OC)c(OC)cc21 (stereo unspecified)", "MEASUREMENT LABEL": "GI50", "RESULT": "> 100 µM (inactive)"}
{"MOLECULE": "NC(=S)Nc1nc(=S)[nH]c2[nH]ccc12", "MEASUREMENT LABEL": "GI50", "RESULT": "> 100 µM (inactive)"}
{"MOLECULE": "COC(=O)c1cnn2c1ccc1ccccc12", "MEASUREMENT LABEL": "GI50", "RESULT": "> 100 µM (inactive)"}
{"MOLECULE": "CN(C)CCCn1c(Cc2ccccc2)nc2cc(C(F)(F)F)ccc21", "MEASUREMENT LABEL": "GI50", "RESULT": "17.5 µM (inactive)"}
{"MOLECULE": "Cc1nc(-c2ccc(Cl)cc2)cn2c1nc1ccccc12", "MEASUREMENT LABEL": "GI50", "RESULT": "> 100 µM (inactive)"}

# context switch: different molecule, same GI50
Dear colleague, I am looking for the recorded GI50 of the following molecule: CC(C)(NC(=O)OCc1ccccc1)C(=O)NC(Cc1ccccc1)C(=O)O (stereo unspecified) (Cbz-[Aib]-[ξF]-OH)
> 100 µM (inactive)

* * *

Test system: DMS-114
Assay: NCI tumour cell line growth inhibition, 48 h
Activity calls are given as the source filed them. No stated cut-off is given here; in the data, active = GI50 up to about 1.1 µM and inactive = higher.
MEASUREMENT LABEL: GI50

{"MOLECULE": "Cc1cc2c(=O)c3ccc(Cl)cc3[nH]c2c(C(N)=O)c1C", "GI50": "> 100 µM (inactive)"}

What does the record list as GI50 for COc1ccc2c3c1O[C@H]1C[C@@H](O)C=C[C@@]31CCN(C)C2 ?
> 150 µM (inactive)

Now the molecule Cc1c(O)c(=O)ccn1CCN
> 100 µM (inactive)

And what about the molecule COc1cc2c3c(c1OCc1ccccc1)NCCC3NCC2 (stereo unspecified) ?
> 100 µM (inactive)

Try this molecule too: O=c1cc[nH]c(=O)[nH]1
553 µM (inactive)

Try the molecule CCCCN(CCCC)CC(C(=O)Nc1ccc([N+](=O)[O-])cc1[N+](=O)[O-])/C(C)=N\NC(=S)NN (stereo unspecified)
> 100 µM (inactive)

What do you get for Nc1ccc(C2=Nc3ccccc3SC(c3ccccc3O)C2)cc1 (stereo unspecified) ?
15.7 µM (inactive)

Note, next up: CC1=C(N(C)C)C(=O)c2nc3n(c2C1=O)CCC3OC(N)=O (stereo unspecified)
16.1 µM (inactive)

Now consider CCOC(=O)c1c[nH]c2c(ccc3ncccc32)c1=O .
> 100 µM (inactive)

Entry to check: COc1cc2c3c(c1OC)C(=O)C=C3N(S(=O)(=O)c1ccc(C)cc1)CC2
> 100 µM (inactive)

Repeat for the following molecule: CCCN1CN(C(C(=O)N[C@@H]2C(=O)N3C2SC(C)(C)C3C(=O)O)c2ccccc2)CSC1=S (stereo partly specified)
54 µM (inactive)

* * *

Test system: SK-OV-3
Test: NCI tumour cell line growth inhibition, 48 h
The source made the active and inactive calls. Cut-off read from the data, not from the text of the source: active = GI50 up to about 1.1 µM and inactive = higher.
The reply should name one outcome from active, inactive

Examples from the recorded data:
{"COMPOUND": "O=C(O)CCSC(=O)Nc1ccc(/N=N/c2ccccc2)cc1", "TARGET OR TEST SYSTEM": "SK-OV-3", "GROUP": "inactive"}
{"COMPOUND": "Cc1cccc2c1CC(Cc1ccccc1C(=O)O)C2=O (stereo unspecified)", "TARGET OR TEST SYSTEM": "SK-OV-3", "GROUP": "inactive"}
{"COMPOUND": "COc1cc2c(cc1OC)C1C=NC(C2)c2cc(OC)c(OC)cc21 (stereo unspecified)", "TARGET OR TEST SYSTEM": "SK-OV-3", "GROUP": "inactive"}

Call for entry N#CC(C#N)=c1c2ccccc2c(=C(C#N)C#N)c2ccccc12 :
inactive

Cool, now CC1=[N+]([O-])C2(CCCC2)N(O)C1(C)C
inactive

Same for COc1ccc(C2(c3ccc(OC)cc3)OC(=O)c3cccc4cccc2c34)cc1
inactive

Quick one: CCOC(=O)C1=C(O)C(=O)c2cc(OC)ccc2C1=O
inactive

One more compound: C/C(=N\NC(=S)N1CCCCCC1)c1ccccn1
active

* * *

Test system: SW-620
Assay: NCI tumour cell line growth inhibition, 48 h
The source made the active and inactive calls. Rule as the data show it: active = GI50 up to about 1.1 µM and inactive = higher.
Give your call using only these classes: 1.0 for active, 0.0 for inactive

Examples with answers:
{"MOLECULE": "CC(=O)O[C@H]1CC[C@H]2[C@@H]3CCC4=CC(=O)C=C[C@]4(O)[C@H]3CC[C@]12C", "GROUP": 0.0}
{"MOLECULE": "C=C1C(=O)O[C@@H]2C[C@@]3(C)CCC[C@H](C)C3=C[C@H]12", "GROUP": 0.0}
{"MOLECULE": "CC(=O)Nc1ccc(C(=O)NN2C(=O)C(Cl)C2c2ccc([N+](=O)[O-])cc2)cc1 (configuration not stated)", "GROUP": 0.0}
{"MOLECULE": "O=S(=O)(/N=c1/[nH]c2ccccc2n1S(=O)(=O)c1ccccc1)c1ccccc1", "GROUP": 0.0}
{"MOLECULE": "CCCCCCCCCCCCCCCC(=O)OCC(O)C1OC(=O)C(O)=C1O (configuration not stated)", "GROUP": 0.0}

Recorded test outcome, item Cc1ccc(CC(=O)Nc2ccc(NC(=O)CNC(=O)/C=C/c3ccc(-c4ccccc4)cc3)cc2C(=O)c2ccccc2)cc1
0.0

Now this one: CC1(C)CC(=O)C2=C(C1)OC1=C(C(=O)CC(C)(C)C1)C2CC(c1ccccc1)c1ccc(O)c(O)c1O (configuration not stated)
0.0

# iterate: CCN(CC)c1ccc(C2N3CCCCC3[C@@H]3c4[nH]c5ccccc5c4CCN23)cc1 (some centres not stated)
0.0

Reference source: ChEMBL document CHEMBL1201862
